Cited source for all entries: paper PMC3673896

What follows is a collection of pIC50 values obtained with EGF receptor tyrosine kinase (EGFR) (Homo sapiens, UniProt P00533).
Sequence (P00533 669-1210 limits assumed): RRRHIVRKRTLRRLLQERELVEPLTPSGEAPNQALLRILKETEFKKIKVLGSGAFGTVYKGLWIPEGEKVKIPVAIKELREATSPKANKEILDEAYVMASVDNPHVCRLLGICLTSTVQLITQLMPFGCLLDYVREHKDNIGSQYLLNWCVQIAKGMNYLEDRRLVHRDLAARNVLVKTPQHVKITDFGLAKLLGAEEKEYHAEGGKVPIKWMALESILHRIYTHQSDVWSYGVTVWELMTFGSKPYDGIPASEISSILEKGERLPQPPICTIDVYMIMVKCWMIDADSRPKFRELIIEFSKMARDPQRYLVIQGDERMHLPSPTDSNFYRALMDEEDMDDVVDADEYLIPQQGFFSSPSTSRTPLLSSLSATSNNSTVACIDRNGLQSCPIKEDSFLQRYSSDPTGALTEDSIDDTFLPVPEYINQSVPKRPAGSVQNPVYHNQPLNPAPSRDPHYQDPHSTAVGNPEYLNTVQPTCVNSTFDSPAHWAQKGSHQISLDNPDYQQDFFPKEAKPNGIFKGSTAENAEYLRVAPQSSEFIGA
To interpret pIC50, take it as minus log10 of a concentration measured in moles per litre.

compound	pIC50
O=C(O)Cc1ccc(O)c(O)c1 [3,4-dihydroxyphenyl acetic acid]	4.78

Proceed to the following item.
# query: pIC50 | item O=C1C(CO)=C[C@@H](O)[C@H]2O[C@@H]12 [(+)-epoxydon] | system: EGF receptor tyrosine kinase (EGFR) (Homo sapiens, UniProt P00533)
5.42
